Target Or System: TRKA (Homo sapiens (Human), UniProt P04629)
Sequence (P04629 441-796): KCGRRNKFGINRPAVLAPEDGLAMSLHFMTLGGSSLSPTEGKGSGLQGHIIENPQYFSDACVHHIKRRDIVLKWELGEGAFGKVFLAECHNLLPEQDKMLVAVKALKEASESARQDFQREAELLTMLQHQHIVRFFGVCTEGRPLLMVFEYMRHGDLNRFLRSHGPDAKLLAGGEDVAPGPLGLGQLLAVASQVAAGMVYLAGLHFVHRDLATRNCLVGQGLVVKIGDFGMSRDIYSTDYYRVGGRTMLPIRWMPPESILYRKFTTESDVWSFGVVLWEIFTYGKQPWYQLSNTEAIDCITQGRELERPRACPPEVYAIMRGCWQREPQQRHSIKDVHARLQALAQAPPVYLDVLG
Assay Protocol: Isolated TRK enzyme assay (HTRF KinEASE-TK), TRKA
Type: biochemical
Assay Conditions: read-out: Trka enzyme (IC50)
Reported IC50 maps to class as: lower range = under 300 nM, middle range = from 300 nM up to 3000 nM, upper range = 3000 nM and over

The examples below pair each entry with its known result.
- Compound String: "CC(C)n1cc(C(=O)c2cncc(NC(=O)c3cn(C)cn3)c2)c2cncnc21"
  Label: "middle range"
- Compound String: "CC(C)n1cc(C(=O)c2cncc(NC(=O)c3cncnc3)c2)c2cncnc21"
  Label: "upper range"
- Compound String: "Cc1cn(CC(=O)Nc2cncc(C(=O)c3cn(C(C)C)c4ncncc34)c2)nn1"
  Label: "middle range"
- Compound String: "CC(C)n1cnc(C(=O)Nc2cncc(C(=O)c3cn(C(C)C)c4ncncc34)c2)c1"
  Label: "lower range"

Which band does "O=C(Cc1ccc(OC(F)(F)F)cc1)Nc1cncc(C(=O)c2cn(C(CO)CO)c3ncncc23)c1" fall in?
middle range

Please let me know in which category the item "Cc1cccnc1C(=O)Nc1cncc(C(=O)c2cn(C(C)C)c3ncncc23)c1" belongs.
upper range

Any idea which band "Cn1cc(C(=O)c2cncc(NC(=O)Cc3cc(F)cc(F)c3F)c2)c2cncnc21" is in?
upper range

Looking at "COc1cc(C(=O)Nc2cncc(C(=O)c3cn(C(C)C)c4ncncc34)c2)nc2c(C)nccc12" , which class would you pick?
lower range

Which class is correct for the following compound? "Cc1cccc(CCC(=O)Nc2cncc(C(=O)c3cn(C)c4ncncc34)c2)c1"
upper range
